- experiment notes: binders of probe aHhip on microarray, primary screen, stem cell growth factor project, biochemical, small-molecule microarray, fluorescence 635/667 (AID 1087);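 also: score merges spot fluorescence at 667nm with spot signal to noise ratio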
- condition set: higher = more signal
reported metric: composite z-score

Example entries and their recorded answers appear below.
smi	experimental result
CCCNC(=O)[C@@]1(Sc2ccc(C)cc2)CC(=O)N(Cc2cc(C(F)(F)F)cc(C(F)(F)F)c2)[C@@H]1c1ccc(CO)cc1I	-0.0237
C/C=C/[C@@H](CCn1cc(CCO[Si](C(C)C)(C(C)C)C(C)C)nn1)[Si](C)(C)c1ccc(OC)cc1	-0.413
COc1c(C)cc(-c2cc3c(c(CCc4ccccc4)n2)[Si](C(C)C)(C(C)C)OC3)cc1C	-0.0346

Let us examine a further case.
Q: Look at this molecule and give its reported composite z-score. O=c1n(-c2ccccc2)c(=O)n2n1CC(COc1ccccc1)=C1[C@@H](CCc3ccccc3)OB(O)C[C@@H]12
Ans: 0.0524
